Test system: HB3
Experiment: qHTS profiling for inhibitors of Plasmodium falciparum proliferation (AID 504749); also: nearly all actives have a fitted effect of over 60% in size
Conditions: P. falciparum in erythrocytes, SYBR Green DNA, 72 h; series mostly up to 28.7 µM
Procedure: NIH National Institute of Allergy and Infectious Diseases [NIAID] NIH Chemical Genomics Center [NCGC] […] Because mature erythrocytes lack DNA, only Plasmodium-derived DNA is detected. NCGC Assay Protocol Summary: The SYBR Green viability assay was adapted from a method described previously (Plouffe et al., 2008). […] The following morning, fluorescence intensity at 485(14) nm excitation and 535(25) nm emission wavelengths was measured on an EnVision (Perkin Elmer) plate reader. […]
Inconclusive results are not listed. Calls of active or inactive are those of the source. Calls follow the shape of the dose curve; as a rule, active = well fitted inhibition curve with a large enough effect; inconclusive = small, poorly fitted or top-dose-only effect; inactive = flat fitted curve, though single readings scatter.
Labels: active, inactive

| molecule | assayed-target | answer-label |
| --- | --- | --- |
| C[N+]1(C)[C@@H]2CC[C@H]1CC(OC(=O)[C@@H](CO)c1ccccc1)C2 (some centres not stated) | HB3 | inactive |
| CCN[C@]1(c2cccs2)CCCCC1=O | HB3 | inactive |
| CC(=O)OC1C[C@H](O[C@@H]2C(O)C[C@H](O[C@@H]3C(O)C[C@@H](OC4CC[C@]5(C)C(CCC6C5CC(O)[C@@]5(C)C(C7=CC(=O)OC7)CC[C@@]65O)C4)OC3C)OC2C)O[C@H](C)[C@H]1O[C@H]1OC(CO)C(O)C(O)C1O (some centres not stated) | HB3 | active |
| CCNC[C@H](O)c1cccc(O)c1 | HB3 | inactive |
| CO[C@@H](COC(N)=O)C1=C(N2CC2)C(=O)C(C)=C(N2CC2)C1=O | HB3 | active |
| CNC(C)[C@@H](O)c1ccccc1 (some centres not stated) | HB3 | inactive |
| CN[C@@H](C)[C@H]1CC[C@@H](N)[C@@H](O[C@@H]2[C@@H](O)[C@@H](O[C@H]3OC[C@@](C)(O)[C@@H](NC)[C@@H]3O)[C@H](N)C[C@@H]2N)O1 (tested in a mixture with another compound) | HB3 | inactive |
| N[C@H]1C[C@H]1c1ccccc1 | HB3 | inactive |
| C[C@@]12CC[C@H]3[C@@H](CC[C@@H]4C[C@H]5S[C@H]5C[C@]43C)[C@H]1CC[C@H]2O | HB3 | inactive |
| CC(=O)O[C@H]1CC[C@@]2(C)C(=CC[C@@H]3[C@H]2CC[C@]2(C)C(=O)CC[C@H]32)C1 | HB3 | inactive |
| C[C@@H]1O[C@H](O[C@@H]2C=C3CC[C@H]4[C@@H](CC[C@]5(C)[C@@H](c6ccc(=O)oc6)CC[C@]45O)[C@@]3(C)CC2)[C@@H](O)[C@H](O)[C@@H]1O | HB3 | inactive |
| CNC[C@H](O)c1ccc(O)cc1 | HB3 | inactive |
| Clc1ccc([C@@H](OCCN2CCCCC2)c2ccccc2)cc1 | HB3 | active |
| C[N+]1([O-])[C@@H]2CC[C@H]1CC(OC(=O)[C@@H](CO)c1ccccc1)C2 (some centres not stated) | HB3 | inactive |
| CC[C@@]1(c2ccc(N)cc2)CCC(=O)NC1=O | HB3 | inactive |
| C[C@]12CC[C@H]3[C@@H](CCC4=CC(=O)CC[C@@]43C)[C@@H]1CC[C@@H]2O | HB3 | inactive |
| C[C@H](N)[C@@H](O)c1ccccc1 | HB3 | inactive |
| CNc1ccc(C(=O)CC(O)CCC(C)C2OC(=O)CC(O)CC(=O)CC(O)CC(O)CC(O)CC(O)CC3(O)CC(O)C(C(=O)OC)C(CC(O[C@@H]4OC(C)C(O)C(N)C4O)/C=C/C=C/C=C/C=C/C=C/C=C/C=C/C2C)O3)cc1 (some centres not stated) | HB3 | inactive |
| CN(C)[C@@H]1C(=O)C(C(N)=O)=C(O)[C@]2(O)C(=O)C3=C(O)c4c(O)ccc(Cl)c4[C@](C)(O)[C@H]3C[C@@H]12 | HB3 | inactive |
| C[C@]12CC[C@H](O)CC1=CCC1C2CC[C@]2(C)C(=O)CC[C@@H]12 (some centres not stated) | HB3 | inactive |
| CC(C)(O)C1C2OC(=O)C1[C@]1(O)C[C@H]3O[C@]34C(=O)O[C@H]2[C@]14C (some centres not stated) (tested in a mixture with another compound) | HB3 | inactive |
| CNC(C)[C@@H](O)c1ccc(O)cc1 (some centres not stated) | HB3 | inactive |

---

tested on: CP185; test: qHTS profiling for inhibitors of Plasmodium falciparum proliferation (AID 504749); also: nearly all actives have a fitted effect of over 60% in size; details: P. falciparum in erythrocytes, SYBR Green DNA, 72 h; series mostly up to 28.7 µM
Records with an inconclusive call do not appear. Active and inactive are the calls of the source. Calls come from the whole dose curve; as a rule, active = well fitted inhibition curve with a large enough effect; inconclusive = small, poorly fitted or top-dose-only effect; inactive = flat fitted curve, though single readings scatter.
measured-quantity: outcome

| compound | measured-quantity | experimental-result |
| --- | --- | --- |
| NCC[C@H](O)C(=O)N[C@H]1C[C@@H](N)[C@@H](O[C@H]2O[C@@H](CN)[C@@H](O)[C@@H](O)[C@@H]2N)[C@@H](O[C@H]2O[C@@H](CO)[C@@H](O)[C@@H]2O)[C@@H]1O | outcome | inactive |
| C[C@H](NC(C)(C)C)C(=O)c1cccc(Cl)c1 | outcome | inactive |
| CC[C@@H]1[C@@H]2C[C@H]3[C@H]4N(C)c5ccccc5[C@@]45C[C@@H]([C@@H]2[C@@H]5O)N3[C@H]1O | outcome | inactive |
| CN[C@@H](C)[C@H]1CC[C@@H](N)[C@@H](O[C@@H]2[C@@H](O)[C@@H](O[C@H]3OC[C@@](C)(O)[C@@H](NC)[C@@H]3O)[C@H](N)C[C@@H]2N)O1 (tested in a mixture with another compound) | outcome | inactive |
| C[C@@]12CC[C@H]3[C@@H](CC[C@@H]4C[C@H]5S[C@H]5C[C@]43C)[C@H]1CC[C@H]2O | outcome | inactive |
| COc1cc2c(cc1OC)[C@@]13CCN4CC5=CCOC6CC(=O)N2C1[C@H]6[C@@H]5C[C@@H]43 (stereo partly specified) | outcome | inactive |

---

Entries and their activity change, negative = inhibition values follow.
assay: Primary qHTS for inhibitors of SARS-S pseudo-typed particle cell entry (AID 1479145); settings: SARS-S pseudotyped particle cell entry, luciferase reporter; series mostly up to 57.1 µM; also: % is scaled to controls: 0 for no effect and ±100 for the full control effect; nearly all actives have a fitted effect of over 45% in size
Inconclusive results are not listed. Calls of active or inactive are those of the source. Calls come from the whole dose curve.
measured-quantity: activity change, negative = inhibition

| compound-structure-string | measured-quantity | experimental-result |
| --- | --- | --- |
| CC(=O)[O][Al][O]C(C)=O | activity change, negative = inhibition | -39.3% [at 11.4 µM] (inactive) |
| [2H]N[C@@H](Cc1ccccc1)C(=O)N1CCC[C@H]1C(=O)N[C@@H](CCCNC(=N)N)C(=O)N1CCC[C@H]1C(=O)NCC(=O)NCC(=O)NCC(=O)NCC(=O)N[C@@H](CC(N)=O)C(=O)NCC(=O)N[C@@H](CC(=O)O)C(=O)N[C@@H](Cc1ccccc1)C(=O)N[C@@H](CCC(=O)O)C(=O)N[C@@H](CCC(=O)O)C(=O)N[C@H](C(=O)N1CCC[C@H]1C(=O)N[C@@H](CCC(=O)O)C(=O)N[C@@H](CCC(=O)O)C(=O)N[C@@H](Cc1ccc(O)cc1)C(=O)N[C@@H](CC(C)C)C(=O)O)[C@@H](C)CC | activity change, negative = inhibition | -29.4% [at 11.4 µM] (inactive) |
| O=C(O)c1cc(O)c2c(c1)[O][Bi][O]2 | activity change, negative = inhibition | -20% [at 0.573 µM] (inactive) |

---

The molecules listed here are annotated with their activity change, negative = inhibition.
experiment: Primary qHTS to identify inhibitors of SARS-CoV-2 cell entry (AID 1645846); conditions: SARS-CoV-2 pseudovirus cell entry assay, luminescence; at 57.1 µM (top of the series) unless noted; also: nearly all actives have a fitted effect of over 45% in size
Records with an inconclusive call do not appear. Bridge positions count the residues as written; N and C are the ends. Square brackets hold non-standard residues; d marks the D form. Peptide text beside a SMILES is read from it. * marks the point of attachment. X1 = CCC(C)C(N)C1=NC(C(=O)*)CS1; dOrn = NCCC[C@@H](N)C(=O)O

| molecule | activity change, negative = inhibition, % [at 27.1 µM] |
| --- | --- |
| NC[C@@H]1CC[C@@H](N)[C@@H](O[C@H]2[C@H](O)[C@@H](O[C@H]3O[C@H](CO)[C@@H](O)[C@H](N)[C@H]3O)[C@H](N)C[C@@H]2N)O1 | -17.7 |
| CO[C@H]1C[C@@H]2CC[C@@H](C)[C@@](O)(O2)C(=O)C(=O)N2CCCC[C@H]2C(=O)O[C@H]([C@H](C)C[C@@H]2CC[C@@H](OCCO)[C@H](OC)C2)CC(=O)[C@H](C)/C=C(/C)[C@@H](O)[C@@H](OC)C(=O)[C@H](C)C[C@H](C)\C=C/C=C\C=C/1C | -11.8 |
| CCC(C)C(N)C1=NC(C(=O)N[C@@H](CC(C)C)C(=O)N[C@H](CCC(=O)O)C(=O)N[C@H](C(=O)N[C@H]2CCCCNC(=O)[C@H](CC(N)=O)NC(=O)[C@@H](CC(=O)O)NC(=O)[C@H](Cc3cnc[nH]3)NC(=O)[C@@H](Cc3ccccc3)NC(=O)[C@H]([C@@H](C)CC)NC(=O)[C@@H](CCCN)NC2=O)[C@@H](C)CC)CS1 (stereo not given in full) (X1-L[dE]IK[dOrn]I[dF]H[dD]N; lactam 4-C) | -8.8 |
